# experiment: Nuclear factor erythroid 2-related factor 2/antioxidant responsive element (Nrf2/ARE) small molecule agonists: qHTS cell viability counter screen in human keratinocytes (AID 1919968); further: nearly all actives have a fitted effect of over 55% in size
# conditionInfo: KeratinoSens HaCaT ARE cells viability, CellTiter-Fluor, 24 h; series mostly up to 92.4 µM
Records with an inconclusive call do not appear. Activity calls are given as the source filed them. The call rests on the fitted dose curve; in most records, active means well fitted cell-killing curve with a large enough effect in the repeat runs; inconclusive means weak or mixed curves, or effect the other way; inactive means flat fitted curve, though single readings scatter.
Pick one: Y = active, N = inactive

Completed entries (count: 6):
>>> labelvalue("NCCC(O)(P(=O)(O)O)P(=O)(O)O")
"N"
>>> labelvalue("C1CSCCS1")
"N"
>>> labelvalue("CCCCCCCCc1ccc(Nc2ccc(CCCCCCCC)cc2)cc1")
"N"
>>> labelvalue("COc1cc(C)c(Cc2cnc(N)nc2N)cc1OC")
"N"
>>> labelvalue("C=C1CC/C=C(\\C)CC[C@@H]2[C@@H]1CC2(C)C")
"N"
>>> labelvalue("CC(=O)NCc1c(I)c(NC(C)=O)c(I)c(C(=O)O)c1I")
"N"

Would you kindly look at the next entry?
Task: Returns: the outcome recorded for O=S(=O)(O)c1ccc(N=Nc2c(O)ccc3cc(S(=O)(=O)O)ccc23)cc1 in this assay.
Output: Y

* * *

# experiment: Nuclear factor erythroid 2-related factor 2/antioxidant responsive element (Nrf2/ARE) small molecule agonists: qHTS cell viability counter screen in human keratinocytes (AID 1919968); further: nearly all actives have a fitted effect of over 55% in size
# conditionInfo: KeratinoSens HaCaT ARE cells viability, CellTiter-Fluor, 24 h; series mostly up to 92.4 µM
Records with an inconclusive call do not appear. Active and inactive are the calls of the source. Calls follow the shape of the dose curve; as a rule, active = well fitted cell-killing curve with a large enough effect in the repeat runs; inconclusive = weak or mixed curves, or effect the other way; inactive = flat fitted curve, though single readings scatter.
Pick one: active, inactive

Task: Returns: the outcome recorded for C=CC(=O)OCCOC(=O)C=C in this assay.
Output: inactive

Task: Returns: the outcome recorded for CC(C)CC(O)Cc1ccccc1 (stereo not given) in this assay.
Output: inactive

Task: Returns: the outcome recorded for O=C(O)c1cccc(Cl)c1Cl in this assay.
Output: inactive

Task: Returns: the outcome recorded for O=C1c2ccccc2C(=O)C1c1ccc2cc(S(=O)(=O)O)cc(S(=O)(=O)O)c2n1 in this assay.
Output: active

* * *

# studyTarget: Muscarinic acetylcholine receptor M1 (Homo sapiens)
# experiment: Cholinergic receptor muscarinic 1 (CHRM1) small molecule antagonists, cell-based qHTS assay (AID 1963588); further: nearly all actives have a fitted effect of over 40% in size; further: potency means the concentration at half of the fitted maximal effect
# conditionInfo: CHRM1-CHO antagonist mode, calcium flux fluorescence; series mostly up to 61.5 µM
# Description: National Center for Advancing Translational Sciences [NCATS] Division of Preclinical Innovation [DPI] U.S. Environmental Protection Agency [EPA] National Institutes of Environmental Health Sciences [NIEHS] National Toxicology Program [NTP] U.S. Food and Drug Administration [FDA] The CHRM1 is a muscarinic receptor. […] The CHRM1-CHO Calcium Flux Assay is a homogeneous fluorescence-based assay for detecting the intracellular calcium level using FDSS kinetic plate reader system. […]
Inconclusive results are not listed. Active and inactive are the calls of the source. Calls come from the whole dose curve.
measuredParameter: Potency

Past entries and their recorded results:
>>> result("NCC1CCCC(CN)C1 (stereo not drawn)")
"18.8 µM (active)"
>>> result("C1=CCC2CC=CC2C1 (stereo not drawn)")
"3.34 µM (active)"
>>> result("CN(C)CCOC(c1ccc(Cl)cc1)c1ccccn1 (stereo not drawn)")
"4.6 µM (active)"

Task: GET /values?readout=Potency&system=Muscarinic acetylcholine receptor M1 (Homo sapiens)&item= CC(C)N=C(N)/N=C(\N)Nc1ccc(Cl)cc1
Output: 0.729 µM (active)

Task: GET /values?readout=Potency&system=Muscarinic acetylcholine receptor M1 (Homo sapiens)&item= C=CCOc1cc(Cl)ccc1C(=O)NCCN(CC)CC
Output: 4.6 µM (active)

Task: GET /values?readout=Potency&system=Muscarinic acetylcholine receptor M1 (Homo sapiens)&item= CCN1CCCC(OC(=O)C(c2ccccc2)c2ccccc2)C1 (stereo not drawn)
Output: 4.1 µM (active)

Task: GET /values?readout=Potency&system=Muscarinic acetylcholine receptor M1 (Homo sapiens)&item= O=[N+]([O-])c1ccccc1CCO
Output: 0.0011 µM (active)

Task: GET /values?readout=Potency&system=Muscarinic acetylcholine receptor M1 (Homo sapiens)&item= Cc1ccccc1C
Output: 0.0015 µM (active)

* * *

# studyTarget: Muscarinic acetylcholine receptor M1 (Homo sapiens)
# experiment: Cholinergic receptor muscarinic 1 (CHRM1) small molecule antagonists, cell-based qHTS assay (AID 1963588); further: nearly all actives have a fitted effect of over 40% in size
# conditionInfo: CHRM1-CHO antagonist mode, calcium flux fluorescence; series mostly up to 61.5 µM
Inconclusive results are not listed. Calls of active or inactive are those of the source. Calls follow the shape of the full dose curve.
measuredParameter: activity, negative = inhibition

Past entries and their recorded results:
>>> result("Cc1oc(C)c(C(=O)Nc2ccccc2)c1C")
"inactive"
>>> result("[O-][n+]1ccc(Cl)cc1")
"inactive"
>>> result("C=CCCC=C")
"inactive"
>>> result("NC(=O)NC1N=C([O][Al])NC1=O (stereo not given)")
"inactive"
>>> result("CC1=CC[C@@H](C(C)(C)O)CC1")
"inactive"
>>> result("COC(=O)CC(C(C)=O)C(=O)OC (stereo not given)")
"inactive"
>>> result("CC(=O)CC(C)=O")
"inactive"
>>> result("CCCCCCCCCCCCCCO")
"inactive"
>>> result("CC(C)(CCl)c1ccccc1")
"inactive"
>>> result("CCOC(=O)c1ccc(OCCN2C[C@H](O)[C@@H](O)[C@H](O)[C@H]2CO)cc1")
"inactive"

Task: Return reported activity, negative = inhibition; argument: CCC/C=C/C=O
Output: inactive

Task: Return reported activity, negative = inhibition; argument: O=C(C(=O)c1ccco1)c1ccco1
Output: inactive

Task: Return reported activity, negative = inhibition; argument: O=C(O)c1ccccc1[N+](=O)[O-]
Output: inactive

Task: Return reported activity, negative = inhibition; argument: CC1COc2ccccc2N1 (stereo not given)
Output: inactive

Task: Return reported activity, negative = inhibition; argument: O=c1[nH]c(=O)c2cn[nH]c2[nH]1
Output: inactive

* * *

# experiment: Nuclear factor erythroid 2-related factor 2/antioxidant responsive element (Nrf2/ARE) small molecule agonists: qHTS cell viability counter screen in human keratinocytes (AID 1919968); further: nearly all actives have a fitted effect of over 55% in size
# conditionInfo: KeratinoSens HaCaT ARE cells viability, CellTiter-Fluor, 24 h; series mostly up to 92.4 µM
Records with an inconclusive call do not appear. The source made the active and inactive calls. Calls follow the shape of the dose curve; as a rule, active = well fitted cell-killing curve with a large enough effect in the repeat runs; inconclusive = weak or mixed curves, or effect the other way; inactive = flat fitted curve, though single readings scatter.
Pick one: true (1) for active, false (0) for inactive

>>> labelvalue("OCCCCl")
"false (0)"

Task: Returns: the outcome recorded for C1=C\CC/C=C\CC/C=C\CC/1 in this assay.
Output: false (0)

Task: Returns: the outcome recorded for CC(C)(c1ccccc1)c1ccc(Nc2ccc(C(C)(C)c3ccccc3)cc2)cc1 in this assay.
Output: false (0)

Task: Returns: the outcome recorded for CCCCOC(=O)CCS in this assay.
Output: false (0)

Task: Returns: the outcome recorded for O=C(NCN1CCOCC1)c1cnccn1 in this assay.
Output: false (0)

* * *

# experiment: Nuclear factor erythroid 2-related factor 2/antioxidant responsive element (Nrf2/ARE) small molecule agonists: qHTS cell viability counter screen in human keratinocytes (AID 1919968); further: nearly all actives have a fitted effect of over 55% in size
# conditionInfo: KeratinoSens HaCaT ARE cells viability, CellTiter-Fluor, 24 h; series mostly up to 92.4 µM
# Excerpt: U.S. Tox21 Program National Center for Advancing Translational Sciences [NCATS] Division of Preclinical Innovation [DPI] U.S. Environmental Protection Agency [EPA] National Institutes of Environmental Health Sciences [NIEHS] National Toxicology Program [NTP] U.S. Food and Drug Administration [FDA] […] The activation of the report gene under culture conditions can be detected by ONE-Glo Luciferase Assay System (Promega, Madison, WI). […]
Records with an inconclusive call do not appear. Active and inactive are the calls of the source. The call rests on the fitted dose curve; in most records, active means well fitted cell-killing curve with a large enough effect in the repeat runs; inconclusive means weak or mixed curves, or effect the other way; inactive means flat fitted curve, though single readings scatter.
Pick one: YES (active), NO (inactive)

Completed entries (count: 10):
>>> labelvalue("C[N+](C)(CCOc1ccccc1)Cc1cccs1")
"NO"
>>> labelvalue("CC(C)C(=O)C(C)C")
"NO"
>>> labelvalue("c1cnccn1")
"NO"
>>> labelvalue("O=C(O)c1cc(=O)[nH]c(=O)[nH]1")
"NO"
>>> labelvalue("O=C[O][Al]([O]C=O)[O]C=O")
"NO"
>>> labelvalue("Nc1ccncc1N")
"NO"
>>> labelvalue("CCCC(C)CCC(C)=O (stereo not given)")
"NO"
>>> labelvalue("CC/C=C\\CCOC(=O)CC")
"NO"
>>> labelvalue("COc1ccc(Br)c(C)c1")
"NO"
>>> labelvalue("[Cl][Nd]([Cl])[Cl]")
"NO"

Would you kindly look at the next entry?
Task: Returns: the outcome recorded for CNCCCC12CCC(c3ccccc31)c1ccccc12 in this assay.
Output: YES

* * *

# experiment: Nuclear factor erythroid 2-related factor 2/antioxidant responsive element (Nrf2/ARE) small molecule agonists: qHTS cell viability counter screen in human keratinocytes (AID 1919968); further: nearly all actives have a fitted effect of over 55% in size
# conditionInfo: KeratinoSens HaCaT ARE cells viability, CellTiter-Fluor, 24 h; series mostly up to 92.4 µM
Results filed as inconclusive are left out. The source made the active and inactive calls. Calls come from the whole dose curve; as a rule, active = well fitted cell-killing curve with a large enough effect in the repeat runs; inconclusive = weak or mixed curves, or effect the other way; inactive = flat fitted curve, though single readings scatter.
measuredParameter: outcome

Past entries and their recorded results:
>>> result("N=C(N)c1ccc2cc(OC(=O)c3ccc(N=C(N)N)cc3)ccc2c1")
"inactive"
>>> result("CCCc1cc(C(N)=S)ccn1")
"inactive"
>>> result("CC(C)CC(C)(O)C#CC(C)(O)CC(C)C (centres undefined)")
"inactive"
>>> result("CCCC(=O)c1ccccc1")
"inactive"
>>> result("CCN(CC)CC(=O)Oc1ccc(NC(C)=O)cc1")
"inactive"

Task: Return reported outcome; argument: COc1ccccc1/C=C/C=O
Output: inactive

Task: Return reported outcome; argument: C=CCCCCCCCCC(=O)OCCCC
Output: inactive

Task: Return reported outcome; argument: O=C(Nc1ccc(Cl)cc1)Nc1ccc(Cl)c(Cl)c1
Output: inactive

Task: Return reported outcome; argument: [O]=[Zr]
Output: inactive

Task: Return reported outcome; argument: COCCCC/C(=N\OCCN)c1ccc(C(F)(F)F)cc1
Output: inactive

Task: Return reported outcome; argument: CC12CC3CC(C)(C1)CC(N)(C3)C2
Output: inactive

Task: Return reported outcome; argument: CCC(C)(C)C1CCC(=O)CC1
Output: inactive

Task: Return reported outcome; argument: CCOC(=O)c1c(C)n(C)c2ccc(O)cc12
Output: inactive

Task: Return reported outcome; argument: C=CCCCCCCCCCCCC
Output: inactive
